measurement-target: RET(KD: 658-1114 G810R) (Homo sapiens, UniProt P07949, G810R)
Construct: 658-1114; expressed in transfected cells; host or cells: 293T.165 (293T cells, generated in-house)
Sequence (P07949 658-1114 G810R): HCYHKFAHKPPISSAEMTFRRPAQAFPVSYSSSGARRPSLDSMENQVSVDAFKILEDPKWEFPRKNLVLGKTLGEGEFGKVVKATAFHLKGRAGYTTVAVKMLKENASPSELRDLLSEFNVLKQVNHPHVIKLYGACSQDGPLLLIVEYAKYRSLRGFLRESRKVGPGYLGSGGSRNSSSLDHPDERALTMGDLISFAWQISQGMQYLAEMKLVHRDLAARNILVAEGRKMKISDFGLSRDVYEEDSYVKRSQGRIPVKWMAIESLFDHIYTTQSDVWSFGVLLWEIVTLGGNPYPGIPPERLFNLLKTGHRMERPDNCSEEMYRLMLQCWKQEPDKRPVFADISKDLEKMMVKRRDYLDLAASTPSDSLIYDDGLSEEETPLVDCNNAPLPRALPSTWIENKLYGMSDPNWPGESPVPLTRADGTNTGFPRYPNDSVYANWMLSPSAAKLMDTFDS
protocol-notes: HiBiT-Degradation, RET G810R degradation assay (Nano-Glo HiBiT Lytic), 293T.165 cells
Format: cell-based
experimental-parameters: HiBiT-Degradation
readout: 293T.165 RET(KD: 658-1114 G810R) 6.0 hours (Emax)

N#Cc1cnn2cc(-c3cnn(C4CCN(C(=O)CC5(O)CCN(c6ccc(NC7CCC(=O)NC7=O)cc6F)CC5)CC4)c3)nc(-c3ccc(N4CCC(c5ncccn5)CC4)nc3)c12 (centres unmarked)
++++ (< 30% = ++++)
CC(C)NC(=O)C1(C)CCN(c2ccc(-c3cc(-c4ccc(N5CCN(C(=O)CC6(O)CCN(c7ccc(NC8CCC(=O)NC8=O)cc7F)CC6)CC5)cc4)cn4ncc(C#N)c34)cn2)CC1 (centres unmarked)
+++ (<50% = +++)
CCC1(C(=O)NC(C)C)CCN(c2ccc(-c3cc(-c4cnn(C5CCN(C(=O)CC6(O)CCN(c7ccc(NC8CCC(=O)NC8=O)cc7F)CC6)CC5)c4)cn4ncc(C#N)c34)cn2)CC1 (centres unmarked)
++++ (< 30% = ++++)
CC(C)NC(=O)C1(C)CCN(c2ccc(-c3cc(-c4ccc(N5CCN(C(=O)CN6CCC(c7ccc(NC8CCC(=O)NC8=O)cc7)CC6)CC5)cc4)cn4ncc(C#N)c34)cn2)CC1 (centres unmarked)
++++ (< 30% = ++++)
CCC1(C(=O)NC(C)C)CCN(c2ccc(-c3cc(-c4cnn(C5CCN(C(=O)CN6CCC(c7ccc(NC8CCC(=O)NC8=O)cc7F)CC6)CC5)c4)cn4ncc(C#N)c34)cn2)CC1 (centres unmarked)
++++ (< 30% = ++++)

Documented 293T.165 RET(KD: 658-1114 G810R) 6.0 hours (Emax) of N#Cc1cnn2cc(-c3cnn(C4CCN(C(=O)CN5CCC(c6ccc(NC7CCC(=O)NC7=O)cc6F)CC5)CC4)c3)cc(-c3ccc(N4CCC(Nc5ccccc5)CC4)nc3)c12 (centres unmarked) : +++ (<50% = +++)

Documented 293T.165 RET(KD: 658-1114 G810R) 6.0 hours (Emax) of N#Cc1cnn2cc(-c3cnn([C@H]4CC[C@H](CCN5CCC(c6ccc(NC7CCC(=O)NC7=O)cc6F)CC5)CC4)c3)cc(-c3ccc(N4CCN(C(=O)Cc5ccc(F)cn5)CC4)nc3)c12 (some centres unmarked) : ++++ (< 30% = ++++)

Documented 293T.165 RET(KD: 658-1114 G810R) 6.0 hours (Emax) of C[C@H](c1ccccn1)N1CCN(c2ccc(-c3nc(-c4cnn(C5CCN(C(=O)CC6(O)CCN(c7ccc(NC8CCC(=O)NC8=O)cc7F)CC6)CC5)c4)cn4ncc(C#N)c34)cn2)CC1 (some centres unmarked) : +++ (<50% = +++)

Documented 293T.165 RET(KD: 658-1114 G810R) 6.0 hours (Emax) of CC1(NC(=O)Cc2ccccc2)CCN(c2ccc(-c3cc(-c4ccc(N5CCN(C(=O)CN6CCC(c7ccc(NC8CCC(=O)NC8=O)cc7F)CC6)CC5)cc4)cn4ncc(C#N)c34)cn2)CC1 (centres unmarked) : ++++ (< 30% = ++++)

Documented 293T.165 RET(KD: 658-1114 G810R) 6.0 hours (Emax) of N#Cc1cnn2cc(-c3ccc(N4CCN(C(=O)CC5(O)CCN(c6ccc(NC7CCC(=O)NC7=O)cc6)CC5)CC4)cc3)cc(-c3ccc(N4CCN(C(=O)Cc5ccc(F)cn5)CC4)nc3)c12 (centres unmarked) : +++ (<50% = +++)

Documented 293T.165 RET(KD: 658-1114 G810R) 6.0 hours (Emax) of COC1(C(=O)NC(C)C)CCN(c2ccc(-c3cc(-c4cnn(C5CCN(C(=O)CN6CCC(c7ccc(NC8CCC(=O)NC8=O)cc7F)CC6)CC5)c4)cn4ncc(C#N)c34)cn2)CC1 (centres unmarked) : +++ (<50% = +++)

Documented 293T.165 RET(KD: 658-1114 G810R) 6.0 hours (Emax) of N#Cc1cnn2cc(-c3ccc(N4CCN(C(=O)CN5CCC(c6ccc(NC7CCC(=O)NC7=O)cc6)CC5)CC4)cc3)cc(-c3ccc(N4CCOCC4)nc3)c12 (centres unmarked) : +++ (<50% = +++)

Documented 293T.165 RET(KD: 658-1114 G810R) 6.0 hours (Emax) of N#Cc1cnn2cc(-c3ccc(N4CCN(C(=O)CN5CCC(c6ccc(NC7CCC(=O)NC7=O)cc6F)CC5)CC4)cc3)nc(-c3ccc(N4CCN(C(=O)Cc5ccc(F)cn5)CC4)nc3)c12 (centres unmarked) : +++ (<50% = +++)
